# Method description: CCTE_Mundy_HCI_Cortical_Synap_Neur_Matur_CellBodySpotCount: CCTE's Synaptogenesis and Neurite Maturation Assay in rat cortical cells for Cell Body Spot Count, Mundy Lab (AID 2284223)
The source made the active and inactive calls. Rule for the calls: active = hit-call score of the fitted dose curve at least 0.9, where 1 is the maximum; inactive = score below 0.9.
Outcome codes: T = active, F = inactive

{"columns": ["Compound", "Label value"],
 "data": [
  ["CCCSP(=O)(OCC)Oc1ccc(Br)cc1Cl (stereo not drawn)", "F"],
  ["CCOP(=O)(SC(C)CC)N1CCSC1=O (stereo not drawn)", "F"],
  ["CC(=NC#N)N(C)Cc1ccc(Cl)nc1", "F"],
  ["CCCSP(=O)(OCC)SCCC", "F"],
  ["CON=C(C(=O)OC)c1ccccc1CON=C(C)c1cccc(C(F)(F)F)c1", "T"],
  ["CSC1=N[C@@](C)(c2ccccc2)C(=O)N1Nc1ccccc1", "F"],
  ["CC(C)N(C(=O)SCC(Cl)=C(Cl)Cl)C(C)C", "T"],
  ["O=[N+]([O-])c1cc(C(F)(F)F)c(Cl)c([N+](=O)[O-])c1Nc1ncc(C(F)(F)F)cc1Cl", "T"],
  ["CCOP(=S)(OCC)Oc1ccc2c(C)c(Cl)c(=O)oc2c1", "F"],
  ["CCOP(=S)(OCC)Oc1ccc([N+](=O)[O-])cc1", "F"],
  ["CCOP(=S)(OCC)Oc1cc(C)nc(C(C)C)n1", "F"],
  ["C[N+]1(C)CCCCC1", "F"],
  ["CCOP(=S)(OCC)SCCSCC", "F"]
]}

---

# Test target: rat CYP2C13, Cyp2c13 (gene 171521) (UniProt P20814)
# Sequence (P20814 whole entry, looked up): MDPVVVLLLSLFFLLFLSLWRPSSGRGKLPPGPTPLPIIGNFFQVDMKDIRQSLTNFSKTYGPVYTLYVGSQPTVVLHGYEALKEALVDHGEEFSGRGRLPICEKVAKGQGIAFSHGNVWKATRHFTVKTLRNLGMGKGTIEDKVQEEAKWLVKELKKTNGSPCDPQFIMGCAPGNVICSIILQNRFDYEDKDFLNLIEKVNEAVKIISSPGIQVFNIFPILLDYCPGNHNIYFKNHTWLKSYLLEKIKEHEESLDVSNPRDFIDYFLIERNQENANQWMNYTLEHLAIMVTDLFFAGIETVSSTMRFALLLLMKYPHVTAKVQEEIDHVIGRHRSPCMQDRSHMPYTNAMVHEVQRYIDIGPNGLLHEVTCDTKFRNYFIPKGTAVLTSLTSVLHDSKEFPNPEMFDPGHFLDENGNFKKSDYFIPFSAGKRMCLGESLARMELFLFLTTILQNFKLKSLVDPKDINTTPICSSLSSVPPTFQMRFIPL
# Method description: NVS_ADME_rCYP2C13: NovaScreen (NVS) CYP450-related Enzyme Activity (ADME) Assay for rat CYP2C13 (AID 2283121)
Records with an inconclusive call do not appear. Calls of active or inactive are those of the source. How the source made its calls: active means hit-call score of the fitted dose curve at least 0.9, where 1 is the maximum; inconclusive means response in the unintended direction; inactive means score below 0.9.
Outcome codes: class 1 = active, class 0 = inactive

{"columns": ["Molecule", "Test target", "Label value"],
 "data": [
  ["CCOP(=S)(OCC)Oc1ccc([N+](=O)[O-])cc1", "rat CYP2C13, Cyp2c13 (gene 171521) (UniProt P20814)", "class 1"],
  ["COc1cccc(C(=O)NN(C(=O)c2cc(C)cc(C)c2)C(C)(C)C)c1C", "rat CYP2C13, Cyp2c13 (gene 171521) (UniProt P20814)", "class 1"],
  ["CCCOCC(=Nc1ccc(Cl)cc1C(F)(F)F)n1ccnc1", "rat CYP2C13, Cyp2c13 (gene 171521) (UniProt P20814)", "class 1"],
  ["CC(C)=CC1C(C(=O)OCN2C(=O)C3=C(CCCC3)C2=O)C1(C)C (stereo unspecified)", "rat CYP2C13, Cyp2c13 (gene 171521) (UniProt P20814)", "class 1"],
  ["CCOC(=O)CC(SP(=O)(OC)OC)C(=O)OCC (stereo unspecified)", "rat CYP2C13, Cyp2c13 (gene 171521) (UniProt P20814)", "class 0"],
  ["CCC(=O)Nc1ccc(Cl)c(Cl)c1", "rat CYP2C13, Cyp2c13 (gene 171521) (UniProt P20814)", "class 1"],
  ["CC[C@H](C)[C@H]1O[C@]2(C=C[C@@H]1C)C[C@@H]1C[C@@H](C/C=C(\\C)[C@@H](O[C@H]3C[C@H](OC)[C@@H](O[C@H]4C[C@H](OC)[C@@H](NC)[C@H](C)O4)[C@H](C)O3)[C@@H](C)/C=C/C=C3\\CO[C@@H]4[C@H](O)C(C)=C[C@@H](C(=O)O1)[C@]34O)O2", "rat CYP2C13, Cyp2c13 (gene 171521) (UniProt P20814)", "class 1"],
  ["CC(=NC#N)N(C)Cc1ccc(Cl)nc1", "rat CYP2C13, Cyp2c13 (gene 171521) (UniProt P20814)", "class 0"],
  ["C[Si](Cn1cncn1)(c1ccc(F)cc1)c1ccc(F)cc1", "rat CYP2C13, Cyp2c13 (gene 171521) (UniProt P20814)", "class 1"],
  ["FC(F)C(F)(F)OCC(Cn1cncn1)c1ccc(Cl)cc1Cl (stereo unspecified)", "rat CYP2C13, Cyp2c13 (gene 171521) (UniProt P20814)", "class 1"],
  ["CSc1nc(NC(C)C)nc(NC(C)C)n1", "rat CYP2C13, Cyp2c13 (gene 171521) (UniProt P20814)", "class 1"]
]}

---

# Read-out: E-selectin (Homo sapiens)
# Method description: BSK_LPS_Eselectin: BioMAP Diversity Plus: LPS Assay for Eselectin Biomarker Activity (AID 2283077)
# Test conditions: primary human HUVEC with PBMC; actives raise or lower the signal
Activity calls are given as the source filed them. Rule for the calls: active = hit-call score of the fitted dose curve at least 0.9, where 1 is the maximum; inactive = score below 0.9.
Outcome codes: T for active, F for inactive

{"columns": ["Compound", "Label value"],
 "data": [
  ["CCCOCC(=Nc1ccc(Cl)cc1C(F)(F)F)n1ccnc1", "T"],
  ["CCc1cnc(C2=NC(C)(C(C)C)C(=O)N2)c(C(=O)O)c1 (configuration not stated)", "F"],
  ["CC1(C(=O)Nc2ccc(O)c(Cl)c2Cl)CCCCC1", "T"],
  ["CC(C)N(C(=O)SCC(Cl)=C(Cl)Cl)C(C)C", "T"],
  ["COP(=O)(OC)SCn1c(=O)oc2cc(Cl)cnc21", "T"],
  ["COc1cccc(C(=O)NN(C(=O)c2cc(C)cc(C)c2)C(C)(C)C)c1C", "F"],
  ["CCOP(=O)(OCC)Oc1cc(C)nc(C(C)C)n1", "F"],
  ["CCC(CC)Nc1c([N+](=O)[O-])cc(C)c(C)c1[N+](=O)[O-]", "T"],
  ["O=c1ccc(=O)[nH][nH]1", "F"],
  ["CCOP(=S)(OCC)OC(Cl)C(Cl)(Cl)Cl (configuration not stated)", "F"],
  ["CCCOc1nn(C(=O)NS(=O)(=O)c2ccccc2C(=O)OC)c(=O)n1C", "F"],
  ["CCCCOC(=O)[C@@H](C)Oc1ccc(Oc2ccc(C#N)cc2F)cc1", "F"]
]}

---

# Read-out: sulfotransferase (SULT2A), SULT2A1 (gene 6822)
# Method description: CLD_SULT2A_24hr: CellzDirect (CLD) Gene Expression Assay for sulfotransferase (SULT2A) at 24 hours (AID 2283694)
# Description: CLD_24hr is a cell-based, multiplexed-readout assay that uses hepatocyte, a human liver primary cell, with measurements taken at 24 hours after chemical dosing in a 96-well plate.CLD_SULT2A_24hr is one of 16 assay component(s) measured or calculated from the CLD_24hr assay. […] Furthermore, this assay endpoint can be referred to as a primary readout. […]
Results filed as inconclusive are left out. Calls of active or inactive are those of the source. Rule for the calls: active = hit-call score of the fitted dose curve at least 0.9, where 1 is the maximum; inconclusive = response in the unintended direction; inactive = score below 0.9.
Outcome codes: active, inactive

{"columns": ["Molecule", "Label value"],
 "data": [
  ["CC1(C(=O)Nc2ccc(O)c(Cl)c2Cl)CCCCC1", "inactive"],
  ["CCOP(=S)(OCC)Oc1cc(C)nc(C(C)C)n1", "inactive"],
  ["C#CCC1=C(C)C(OC(=O)C2C(C=C(C)C)C2(C)C)CC1=O (stereo unspecified)", "inactive"],
  ["CC[C@H](C)[C@H]1O[C@]2(C=C[C@@H]1C)C[C@@H]1C[C@@H](C/C=C(\\C)[C@@H](O[C@H]3C[C@H](OC)[C@@H](O[C@H]4C[C@H](OC)[C@@H](NC)[C@H](C)O4)[C@H](C)O3)[C@@H](C)/C=C/C=C3\\CO[C@@H]4[C@H](O)C(C)=C[C@@H](C(=O)O1)[C@]34O)O2", "active"],
  ["CSc1nnc(C(C)(C)C)c(=O)n1N", "inactive"],
  ["CC(C1CC1)C(O)(Cn1cncn1)c1ccc(Cl)cc1 (stereo unspecified)", "inactive"]
]}

---

# Test target: mouse Peroxisome Proliferator-activated Receptor gamma (PPARg), Pparg (gene 19016) (UniProt P37238)
# Sequence (P37238 whole entry, looked up): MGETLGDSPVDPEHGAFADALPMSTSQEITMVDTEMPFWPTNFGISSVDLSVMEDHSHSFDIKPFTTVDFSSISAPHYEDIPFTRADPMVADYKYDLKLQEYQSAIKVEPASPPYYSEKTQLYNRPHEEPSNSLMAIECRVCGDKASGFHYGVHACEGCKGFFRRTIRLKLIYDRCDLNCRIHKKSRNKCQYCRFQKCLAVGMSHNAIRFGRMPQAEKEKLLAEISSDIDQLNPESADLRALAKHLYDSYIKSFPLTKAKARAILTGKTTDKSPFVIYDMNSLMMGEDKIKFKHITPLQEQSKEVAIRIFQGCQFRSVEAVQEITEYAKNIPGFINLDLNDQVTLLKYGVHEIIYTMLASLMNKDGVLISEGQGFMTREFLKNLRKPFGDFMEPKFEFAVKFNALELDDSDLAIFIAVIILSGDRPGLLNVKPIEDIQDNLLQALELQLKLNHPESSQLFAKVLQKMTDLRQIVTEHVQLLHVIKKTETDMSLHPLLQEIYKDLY
# Method description: ATG_mPPARg_XSP1: Attagene TRANS-FACTORIAL Multi-Species (XSP1) HepG2 Assay for mouse Peroxisome Proliferator-activated Receptor gamma (PPARg) (AID 2283802)
Results filed as inconclusive are left out. Activity calls are given as the source filed them. Rule for the calls: active = hit-call score of the fitted dose curve at least 0.9, where 1 is the maximum; inconclusive = response in the unintended direction; inactive = score below 0.9.
A collection of molecules and their measured AC50
Recorded endpoint: AC50

{"columns": ["Molecule", "Recorded endpoint", "Measured result"],
 "data": [
  ["C#CCC1=C(C)C(OC(=O)C2C(C=C(C)C)C2(C)C)CC1=O (centres undefined)", "AC50", "26.7 µM (active)"],
  ["CCOP(=S)(OCC)Oc1ccc2c(C)c(Cl)c(=O)oc2c1", "AC50", "26.7 µM (active)"],
  ["CCCOCC(=Nc1ccc(Cl)cc1C(F)(F)F)n1ccnc1", "AC50", "0.674 µM (active)"],
  ["CCc1cccc(C)c1N(C(=O)CCl)C(C)COC (centres undefined)", "AC50", "25.5 µM (active)"]
]}

The origin of these recorded values is PubChem BioAssay (EPA / NIEHS).
